The measured values listed here are drawn from patent US20260297042A1.

- Target desc: WEE1 (Homo sapiens)
- Construct: purchased Thermo Fisher PR7373A
- Assay explanation: Selectivity versus WEE1 assay (ADP-Glo enzymatic assay)
- Type: biochemical
- Condition description: fold difference in selectivity for PKMYT1 over WEE1; banded

{"columns": ["Compound", "Target desc", "PKMYT1 vs. WEE1 selectivity"],
 "data": [
  ["Cc1ccc(O)c(C)c1NC(=O)c1cnc(Nc2nccc3cccnc23)s1", "WEE1 (Homo sapiens)", "Y (1000-5000 fold)"],
  ["Cc1ccnc(Nc2ncc(C(=O)Nc3c(C)ccc(O)c3C)s2)c1F", "WEE1 (Homo sapiens)", "Y (1000-5000 fold)"],
  ["Cc1cn(C(C)C(=O)N2CCCC2)nc1Nc1ncc(C(=O)Nc2c(C)ccc(O)c2C)s1 (stereo not shown)", "WEE1 (Homo sapiens)", "X (100-<1000 fold)"],
  ["Cc1cn(CC(=O)N2CCC(C)C2)nc1Nc1ncc(C(=O)Nc2c(C)ccc(O)c2C)s1 (stereo not shown)", "WEE1 (Homo sapiens)", "X (100-<1000 fold)"],
  ["Cc1ccc(O)c(C)c1NC(=O)c1cnc(Nc2nccn2C)s1", "WEE1 (Homo sapiens)", "X (100-<1000 fold)"],
  ["CCC(C(=O)N1CCN(C)CC1)n1ccc(Nc2ncc(C(=O)Nc3c(C)ccc(O)c3C)s2)n1 (stereo not shown)", "WEE1 (Homo sapiens)", "Y (1000-5000 fold)"],
  ["Cc1ccc(O)c(C)c1NC(=O)c1cnc(Nc2cccc(OC(C)C)n2)s1", "WEE1 (Homo sapiens)", "X (100-<1000 fold)"],
  ["Cc1nccc(Nc2ncc(C(=O)Nc3c(C)ccc(O)c3C)s2)n1", "WEE1 (Homo sapiens)", "Y (1000-5000 fold)"],
  ["CCN(CC(F)(F)F)C(=O)Cn1cc(C)c(Nc2ncc(C(=O)Nc3c(C)ccc(O)c3C)s2)n1", "WEE1 (Homo sapiens)", "X (100-<1000 fold)"]
]}

---

The following molecules are listed with their measured IC50 values.
- Target desc: Human PKMYT1 (Homo sapiens, UniProt Q99640)
- Construct: Human PKMYT1 75-362 was cloned as a TEV cleavable 6xHis fusion; 6xHis (TEV cleavable) (cleaved yes); made in house; host or cells: bacterial cells
- Sequence (Q99640 75-362): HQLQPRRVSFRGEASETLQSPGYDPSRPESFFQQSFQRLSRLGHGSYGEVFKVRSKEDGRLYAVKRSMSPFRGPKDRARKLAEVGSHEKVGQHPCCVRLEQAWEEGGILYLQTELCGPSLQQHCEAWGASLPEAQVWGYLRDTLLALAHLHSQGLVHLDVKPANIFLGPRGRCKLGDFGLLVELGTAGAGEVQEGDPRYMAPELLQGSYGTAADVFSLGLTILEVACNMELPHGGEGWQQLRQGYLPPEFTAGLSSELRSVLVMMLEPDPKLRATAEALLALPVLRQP
- Assay explanation: PKMYT1 biochemical ADP-Glo enzymatic assay
- Condition description: ADP-Glo; 15 nM PKMYT1 kinase domain, 500 µM ATP, 60 minutes at 26° C.; banded

{"columns": ["Molecule", "IC50"],
 "data": [
  ["Cc1ccc(O)c(C)c1NC(=O)c1cnc(Nc2cccc(C(=O)N3CC4CCC3C4)c2)s1 (centres unmarked) [BAA-289]", "< 50 nM"],
  ["Cc1ccc(O)c(C)c1NC(=O)c1cnc(Nc2ccn([C@@H]3CCN(C)C3)n2)s1 [BAA-116]", "50 to 1000 nM"],
  ["Cc1ccc(O)c(C)c1NC(=O)c1cnc(Nc2ccn(CC(=O)NC3CCC3)n2)s1 [BAA-191]", "< 50 nM"],
  ["Cc1cn(CC(=O)N2CCCC2)nc1Nc1ncc(C(=O)Nc2c(C)ccc(O)c2C)s1 [BAA-208]", "< 50 nM"],
  ["Cc1ccc(O)c(C)c1NC(=O)c1cnc(Nc2ccn(C3CCCC3)n2)s1 [BAA-014]", "< 50 nM"]
]}

---

- Target desc: Human PKMYT1 (Homo sapiens)
- Construct: Human PKMYT1 75-362 was cloned as a TEV cleavable 6xHis fusion; 6xHis (TEV cleavable) (cleaved yes); made in house; host or cells: bacterial cells
- Assay explanation: PKMYT1 biochemical ADP-Glo enzymatic assay
- Condition description: ADP-Glo; 15 nM PKMYT1 kinase domain, 500 µM ATP, 60 minutes at 26° C.; banded

{"columns": ["Compound", "Target desc", "IC50"],
 "data": [
  ["Cc1ccc(O)c(C)c1NC(=O)c1cnc(Nc2ccc(F)c(C#N)c2)s1 [BAA-282]", "Human PKMYT1 (Homo sapiens)", "1000 to 11000 nM"],
  ["Cc1ccc(O)c(C)c1NC(=O)c1cnc(Nc2nc(C)c(C)s2)s1 [BAA-266]", "Human PKMYT1 (Homo sapiens)", "50 to 1000 nM"],
  ["Cc1ccc(O)c(C)c1NC(=O)c1cnc(NCc2ccccc2)s1 [BAA-344]", "Human PKMYT1 (Homo sapiens)", "50 to 1000 nM"],
  ["Cc1cn(-c2ccncc2)nc1Nc1ncc(C(=O)Nc2c(C)ccc(O)c2C)s1 [BAA-372]", "Human PKMYT1 (Homo sapiens)", "< 50 nM"],
  ["Cc1ccc(O)c(C)c1NC(=O)c1cnc(NCCNC(=O)OC(C)(C)C)s1 [BAA-068]", "Human PKMYT1 (Homo sapiens)", "50 to 1000 nM"],
  ["Cc1ccc(O)c(C)c1NC(=O)c1cnc(Nc2ccn(CC(=O)N3CC4(C3)CN(C(=O)OC(C)(C)C)C4)n2)s1 [BAA-144]", "Human PKMYT1 (Homo sapiens)", "< 50 nM"],
  ["CCN(CC)C(=O)Cn1ccc(Nc2ncc(C(=O)Nc3c(C)ccc(O)c3C)s2)n1 [BAA-173]", "Human PKMYT1 (Homo sapiens)", "< 50 nM"]
]}

---

- Target desc: WEE1 (Homo sapiens, UniProt P30291)
- Construct: purchased Thermo Fisher PR7373A
- Sequence (P30291 whole entry): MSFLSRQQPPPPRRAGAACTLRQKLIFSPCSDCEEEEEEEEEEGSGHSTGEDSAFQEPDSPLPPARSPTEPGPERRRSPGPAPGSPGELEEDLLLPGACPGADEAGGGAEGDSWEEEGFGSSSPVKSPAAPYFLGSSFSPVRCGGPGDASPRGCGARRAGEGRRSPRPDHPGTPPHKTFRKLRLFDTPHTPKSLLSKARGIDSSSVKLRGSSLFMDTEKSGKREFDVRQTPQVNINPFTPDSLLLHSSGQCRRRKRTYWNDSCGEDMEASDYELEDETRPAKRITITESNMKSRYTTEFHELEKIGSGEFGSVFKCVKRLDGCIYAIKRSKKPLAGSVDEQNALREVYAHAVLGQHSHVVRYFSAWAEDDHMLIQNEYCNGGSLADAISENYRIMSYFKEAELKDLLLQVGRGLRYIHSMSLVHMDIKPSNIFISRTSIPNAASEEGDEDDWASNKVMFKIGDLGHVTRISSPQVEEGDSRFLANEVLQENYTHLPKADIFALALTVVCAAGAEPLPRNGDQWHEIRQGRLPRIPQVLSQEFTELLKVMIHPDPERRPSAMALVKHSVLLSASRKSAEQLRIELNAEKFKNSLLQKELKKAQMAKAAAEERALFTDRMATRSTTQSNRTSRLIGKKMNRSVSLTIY
- Assay explanation: Selectivity versus WEE1 assay (ADP-Glo enzymatic assay)
- Format: biochemical
- Condition description: ADP-Glo; 15 nM WEE1, 60 minutes at 26° C.; banded
pIC50: −log10 of the molar value. Where a name gives a salt, the structure may show the parent alone.

{"columns": ["Compound", "pIC50"],
 "data": [
  ["Cc1ccc(N[S+]([O-])C(C)(C)C)nc1Nc1ncc(C(=O)Nc2c(C)ccc(O)c2C)s1 (centres unmarked)", "6.00 to 7.30"],
  ["Cc1ccc(O)c(C)c1NC(=O)c1cnc(Nc2cccc(NC(=O)c3ccc(F)cc3)n2)s1", "< 4.96"],
  ["Cc1ccc(O)c(C)c1NC(=O)c1cnc(Nc2cccc(S(=O)(=O)N3CC(F)(F)C(F)(F)C3)c2)s1", "< 4.96"],
  ["Cc1ccc(O)c(C)c1NC(=O)c1cnc(Nc2ccn(CC(=O)NC3CCCCC3)n2)s1", "< 4.96"],
  ["Cc1cnccc1-n1cc(C)c(Nc2ncc(C(=O)Nc3c(C)ccc(O)c3C)s2)n1", "4.96 to 6.00"],
  ["Cc1ccc(O)c(C)c1NC(=O)c1cnc(NCC2CCNCC2)s1 [BAA-079, hydrochloride]", "< 4.96"],
  ["Cc1ccc(O)c(C)c1NC(=O)c1cnc(Nc2ccn(CC(=O)NC3CCN(C)CC3)n2)s1 [BAA-151, (hydrochloride)]", "< 4.96"],
  ["Cc1ccc(O)c(C)c1NC(=O)c1cnc(Nc2nc(CO)cs2)s1", "< 4.96"],
  ["Cc1ccc(O)c(C)c1NC(=O)c1cnc(Nc2cc(C(C)(C)O)n(C)n2)s1", "4.96 to 6.00"],
  ["Cc1ccc(O)c(C)c1NC(=O)c1cnc(Nc2nn(C)c3cccnc23)s1", "< 4.96"],
  ["Cc1ccc(O)c(C)c1NC(=O)c1cnc(Nc2ccn([C@@H]3CCN(C(=O)NCc4ccccc4)C3)n2)s1", "< 4.96"],
  ["Cc1ccc(O)c(C)c1NC(=O)c1cnc(Nc2cccc(S(=O)(=O)C(F)(F)F)c2)s1", "< 4.96"],
  ["CCCCn1ccc(Nc2ncc(C(=O)Nc3c(C)ccc(O)c3C)s2)n1", "4.96 to 6.00"],
  ["Cc1ccc(O)c(C)c1NC(=O)c1cnc(Nc2ccn(CC(=O)NC3CCOCC3)n2)s1", "< 4.96"],
  ["Cc1ccc(O)c(C)c1NC(=O)c1cnc(Nc2cc3cc(F)ccc3cn2)s1", "< 4.96"],
  ["Cc1ccc(O)c(C)c1NC(=O)c1cnc(Nc2cc(Cl)nc(C(F)(F)F)n2)s1", "< 4.96"],
  ["Cc1ccc(O)c(C)c1NC(=O)c1cnc(NCc2cccc(O)c2)s1", "< 4.96"]
]}

---

Listed compounds paired with reported IC50
- Target desc: WEE1 (Homo sapiens, UniProt P30291)
- Construct: purchased Thermo Fisher PR7373A
- Assay explanation: Selectivity versus WEE1 assay (ADP-Glo enzymatic assay)
- Type: biochemical
- Condition description: WEE1 15 nM; ADP-Glo; banded values
Measured attribute: IC50

{"columns": ["Compound", "Measured attribute", "Observed result"],
 "data": [
  ["O=C(Nc1c(F)ccc(O)c1Cl)c1cnc(Nc2ccn(CC(=O)N3CCCC3)n2)s1", "IC50", "> 11 µM"],
  ["Cc1cn(-c2ccn(C)n2)nc1Nc1ncc(C(=O)Nc2c(C)ccc(O)c2C)s1", "IC50", "1 to 11 µM"],
  ["Cc1ccc(O)c(C)c1NC(=O)c1cnc(Nc2cc(C(=O)N3CCCC3)n(C)n2)s1", "IC50", "1 to 11 µM"],
  ["CCOc1ccc(Nc2ncc(C(=O)Nc3c(C)ccc(O)c3C)s2)cc1", "IC50", "1 to 11 µM"],
  ["CCc1c[nH]nc1Nc1ncc(C(=O)Nc2c(C)ccc(O)c2C)s1", "IC50", "1 to 11 µM"],
  ["Cc1ccc(O)c(C)c1NC(=O)c1cnc(Nc2nccn2C)s1", "IC50", "> 11 µM"],
  ["Cc1ccc2c(Nc3ncc(C(=O)Nc4c(C)ccc(O)c4C)s3)nn(C)c2c1", "IC50", "1 to 11 µM"],
  ["COC1CCN(C(=O)Cn2cc(C)c(Nc3ncc(C(=O)Nc4c(C)ccc(O)c4C)s3)n2)C1 (stereo not shown)", "IC50", "1 to 11 µM"],
  ["Cc1ccc(O)c(C)c1NC(=O)c1cnc(Nc2n[nH]c3ccccc23)s1", "IC50", "> 11 µM"],
  ["CCN(CC)C(=O)C(C)n1cc(C)c(Nc2ncc(C(=O)Nc3c(C)ccc(O)c3C)s2)n1 (stereo not shown)", "IC50", "1 to 11 µM"],
  ["Cc1ccc(O)c(C)c1NC(=O)c1cnc(Nc2cccc3cccnc23)s1", "IC50", "> 11 µM"],
  ["Cc1ccc(O)c(C)c1NC(=O)c1cnc(Nc2nn(CC(F)(F)F)c3ccccc23)s1", "IC50", "1 to 11 µM"],
  ["CCN(CCOC)C(=O)Cn1cc(C)c(Nc2ncc(C(=O)Nc3c(C)ccc(O)c3C)s2)n1", "IC50", "1 to 11 µM"],
  ["Cc1ccc(O)c(C)c1NC(=O)c1cnc(Nc2cccc(-c3ncccn3)n2)s1", "IC50", "0.05 to 1 µM"],
  ["Cc1cn(CC(=O)N2CCCC2c2ccccc2)nc1Nc1ncc(C(=O)Nc2c(C)ccc(O)c2C)s1 (stereo not shown)", "IC50", "1 to 11 µM"],
  ["Cc1ccc(O)c(C)c1NC(=O)c1cnc(Nc2nn(C)cc2Br)s1", "IC50", "1 to 11 µM"]
]}
